PROTOCOL_SUMMARY: Photostability: xenon arc weathering of chromophore solutions, LCMS analysis
Type: physicochemical
CONDITION_PARAMETERS: 3 wt % in Rhodiasolv IRIS; xenon arc, 82° C. bp; linearly interpolated to 0.5 MJ/m2 @ 340 nm of exposure energy
# binarize Chromophore Remaining (%): threshold 90% inclusive, high side MET, low side NOT MET

Completed entries (count: 5):
# SMILES_TEXT, GROUP
data = [
    ("COc1cc2oc(-c3ccc(C(C)(C)C)cc3)c(C3=C(c4cc(-c5cccs5)sc4-c4cccs4)C(F)(F)C(F)(F)C3(F)F)c2cc1OC", "MET"),
    ("CC(=O)Oc1cc2oc(-c3ccc(C(C)(C)C)cc3)c(C3=C(c4cc(-c5cc(C(C)(C)C)cs5)sc4-c4cc(C(C)(C)C)cs4)C(F)(F)C(F)(F)C3(F)F)c2cc1OC(C)=O", "MET"),
    ("COc1ccc2c(C3=C(c4cc(-c5ccc(C(C)(C)C)s5)sc4-c4ccc(C(C)(C)C)s4)C(F)(F)C(F)(F)C3(F)F)c(-c3ccc(C(C)(C)C)cc3)oc2c1", "NOT MET"),
    ("COc1ccc2oc(-c3ccc(C(C)(C)C)cc3)c(C3=C(c4cc(-c5cc6c(s5)C(C)(C)CCC6(C)C)sc4-c4cc5c(s4)C(C)(C)CCC5(C)C)C(F)(F)C(F)(F)C3(F)F)c2c1", "MET"),
    ("COc1ccc2oc(-c3ccc(C(C)(C)C)cc3)c(C3=C(c4cc(-c5ccc(C(C)(C)C)s5)sc4-c4ccc(C(C)(C)C)s4)C(F)(F)C(F)(F)C3(F)F)c2c1", "NOT MET"),
]

Would you kindly look at the next entry?
Check this compound for Chromophore Remaining (%) at or above 90%: CC(C)(C)c1ccc(-c2oc3ccccc3c2C2=C(c3cc(-c4ccc(C(C)(C)C)s4)sc3-c3ccc(C(C)(C)C)s3)C(F)(F)C(F)(F)C2(F)F)cc1 NOT MET

These data points were gathered from patent US20220220100A1.
